Biological target: mPRδ (Mus musculus)
Sequence (Q6TCG5 whole entry): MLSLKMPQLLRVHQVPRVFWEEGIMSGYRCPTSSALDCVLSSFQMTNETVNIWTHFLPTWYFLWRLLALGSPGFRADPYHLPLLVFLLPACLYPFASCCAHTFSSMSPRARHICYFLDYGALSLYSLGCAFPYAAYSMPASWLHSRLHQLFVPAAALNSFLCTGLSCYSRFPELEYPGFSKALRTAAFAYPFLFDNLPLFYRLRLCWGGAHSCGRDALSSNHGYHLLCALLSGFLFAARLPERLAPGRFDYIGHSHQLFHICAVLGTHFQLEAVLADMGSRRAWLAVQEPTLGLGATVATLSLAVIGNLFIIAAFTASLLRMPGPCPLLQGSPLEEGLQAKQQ
Experiment: Gq luminescent reporter assay
measuredProperty: pEC50
A value of pEC50 is the negative decimal logarithm of a concentration given in moles per litre.

query: What value of pEC50 has been reported for the following molecule? `CC(=O)[C@H]1CC[C@H]2[C@@H]3CC[C@H]4C[C@H](O)CC[C@]4(C)[C@H]3CC[C@]12C`
result: 7.95

###

Molecular target: mPRε (Mus musculus)
Sequence (Q6TCG2 1-375): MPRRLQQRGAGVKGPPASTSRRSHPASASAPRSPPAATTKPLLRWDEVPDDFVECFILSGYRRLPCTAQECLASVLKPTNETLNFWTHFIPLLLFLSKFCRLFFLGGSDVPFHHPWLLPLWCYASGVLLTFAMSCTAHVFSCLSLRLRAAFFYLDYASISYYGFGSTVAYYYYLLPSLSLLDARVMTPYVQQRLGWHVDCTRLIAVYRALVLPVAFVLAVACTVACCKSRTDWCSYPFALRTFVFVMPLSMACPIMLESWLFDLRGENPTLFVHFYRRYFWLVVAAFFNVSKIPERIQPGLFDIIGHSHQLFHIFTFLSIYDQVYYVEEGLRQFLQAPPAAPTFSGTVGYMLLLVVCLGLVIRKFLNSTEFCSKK
Experiment: Gs luminescent reporter assay
Format: cell-based
measuredProperty: pEC50
A value of pEC50 is the negative decimal logarithm of a concentration given in moles per litre.

query: What value of pEC50 has been reported for the following compound? `CC(=O)[C@H]1CC[C@H]2[C@@H]3CC[C@H]4C[C@H](O)CC[C@]4(C)[C@H]3CC[C@]12C`
result: 8.60
